# system tested: T1, ANTIBODY EXPRESSION CONTROL
# T1 construct: also called mouse anti-canine antibody (capture reagent of the expression control ELISA)
# protocol notes: SPR Biacore, expression control
assay metric: pKd
Keep in mind that pKd stands for -log10 of concentration in molar terms.

Given the binder Mu_09E09_VL (SEQ ID NO: 37)_N34A (antibody, V domains shown) VH: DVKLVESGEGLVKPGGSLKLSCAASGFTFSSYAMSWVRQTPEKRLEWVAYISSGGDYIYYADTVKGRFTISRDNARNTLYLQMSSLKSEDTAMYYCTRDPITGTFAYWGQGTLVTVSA VL: DLQMTQTTSSLSASLGDRVTISCRASQDINNYLAWYQQKPDGTVKLLIYYTSTLHSGVPSRFSGSGSGTDYSLTISNLEQEDIATYFCQQGNTLPWTFGGGTKLEIKR , write its reported pKd. 9.50

Given the binder Mu_09E09_VL (SEQ ID NO: 37)_Q90A (antibody, V domains shown) VH: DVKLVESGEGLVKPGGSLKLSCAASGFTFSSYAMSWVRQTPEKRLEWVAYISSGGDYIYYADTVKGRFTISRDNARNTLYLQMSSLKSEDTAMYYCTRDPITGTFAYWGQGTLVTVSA VL: DLQMTQTTSSLSASLGDRVTISCRASQDINNYLNWYQQKPDGTVKLLIYYTSTLHSGVPSRFSGSGSGTDYSLTISNLEQEDIATYFCQAGNTLPWTFGGGTKLEIKR , write its reported pKd. 9.60

Given the binder Mu_19F07_VH (SEQ ID NO: 47)_Y60A (antibody, V domains shown) VH: EVKLVESEGGLVQPGSSMKLSCTASGFTFSDYYMAWVRQVPEKGLEWVANINYDGSSTYALDSLKSRFIISRDNAKNILYLQMSSLKSEDTATYYCARGLTWDFDVWGTGTTVTVSS VL: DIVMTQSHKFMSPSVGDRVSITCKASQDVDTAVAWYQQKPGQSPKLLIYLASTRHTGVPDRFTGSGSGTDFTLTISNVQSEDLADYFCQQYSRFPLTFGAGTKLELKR , write its reported pKd. 8.39

Given the binder Mu_09E09_VL (SEQ ID NO: 37)_L94A (antibody, V domains shown) VH: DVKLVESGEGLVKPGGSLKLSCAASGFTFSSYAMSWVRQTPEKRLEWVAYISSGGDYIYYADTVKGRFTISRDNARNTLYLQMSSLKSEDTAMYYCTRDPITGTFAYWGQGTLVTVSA VL: DLQMTQTTSSLSASLGDRVTISCRASQDINNYLNWYQQKPDGTVKLLIYYTSTLHSGVPSRFSGSGSGTDYSLTISNLEQEDIATYFCQQGNTAPWTFGGGTKLEIKR , write its reported pKd. 9.60

Given the binder Mu_10F07_VL (SEQ ID NO: 41)_L33A (antibody, V domains shown) VH: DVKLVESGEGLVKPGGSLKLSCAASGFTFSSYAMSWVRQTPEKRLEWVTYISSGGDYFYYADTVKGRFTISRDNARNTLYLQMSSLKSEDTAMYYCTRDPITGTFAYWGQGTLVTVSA VL: DIQMTQTTSSLSASLGDRVTISCRASQDITNYANWYQQKPDGTVKLLIYYTSTLHSGVPSRFSGSGSGTDFSLTISNLEQEDIATYFCQQGHMLPWTFGGGTKLEIKR , write its reported pKd. 9.09

Given the binder Mu_19F07_VH (SEQ ID NO: 47)_F104A (antibody, V domains shown) VH: EVKLVESEGGLVQPGSSMKLSCTASGFTFSDYYMAWVRQVPEKGLEWVANINYDGSSTYYLDSLKSRFIISRDNAKNILYLQMSSLKSEDTATYYCARGLTWDADVWGTGTTVTVSS VL: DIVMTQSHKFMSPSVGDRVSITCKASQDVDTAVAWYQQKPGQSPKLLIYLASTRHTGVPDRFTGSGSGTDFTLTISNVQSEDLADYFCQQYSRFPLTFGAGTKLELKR , write its reported pKd. 9.81

Given the binder Mu_19F07_VH (SEQ ID NO: 47)_W102A (antibody, V domains shown) VH: EVKLVESEGGLVQPGSSMKLSCTASGFTFSDYYMAWVRQVPEKGLEWVANINYDGSSTYYLDSLKSRFIISRDNAKNILYLQMSSLKSEDTATYYCARGLTADFDVWGTGTTVTVSS VL: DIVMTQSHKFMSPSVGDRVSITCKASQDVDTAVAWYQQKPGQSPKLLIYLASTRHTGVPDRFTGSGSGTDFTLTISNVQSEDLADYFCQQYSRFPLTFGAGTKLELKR , write its reported pKd. 9.86

Given the binder Mu_10F07_VH (SEQ ID NO: 39)_D99A (antibody, V domains shown) VH: DVKLVESGEGLVKPGGSLKLSCAASGFTFSSYAMSWVRQTPEKRLEWVTYISSGGDYFYYADTVKGRFTISRDNARNTLYLQMSSLKSEDTAMYYCTRAPITGTFAYWGQGTLVTVSA VL: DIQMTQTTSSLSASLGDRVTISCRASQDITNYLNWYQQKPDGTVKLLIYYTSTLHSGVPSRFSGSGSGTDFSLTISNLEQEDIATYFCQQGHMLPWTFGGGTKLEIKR , write its reported pKd. 9.00

Given the binder Mu_10F07_VH (SEQ ID NO: 39)_Y107A (antibody, V domains shown) VH: DVKLVESGEGLVKPGGSLKLSCAASGFTFSSYAMSWVRQTPEKRLEWVTYISSGGDYFYYADTVKGRFTISRDNARNTLYLQMSSLKSEDTAMYYCTRDPITGTFAAWGQGTLVTVSA VL: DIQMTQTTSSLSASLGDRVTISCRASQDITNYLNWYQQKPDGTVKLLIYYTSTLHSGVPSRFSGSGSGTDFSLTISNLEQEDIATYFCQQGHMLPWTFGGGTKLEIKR , write its reported pKd. 9.35

Given the binder Mu_02D09_VL (SEQ ID NO: 33)_W94A (antibody, V domains shown) VH: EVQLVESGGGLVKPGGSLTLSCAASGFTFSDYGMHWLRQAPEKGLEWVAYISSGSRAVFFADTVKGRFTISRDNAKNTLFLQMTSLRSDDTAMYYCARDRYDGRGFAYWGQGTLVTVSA VL: DIVLTQSPATLSVTPGDSVSLSCRASQSISNNLHWYQQTSHESPRLLITYASQSISGIPSRFSGSGSGTDFTLSINSVETEDFGMYFCQQSNSAPLTFGAGTKLELKR , write its reported pKd. 10.01
